Tested on: HCT116
test method notes: viability inhibition vs untreated; higher = more cytotoxic
test conditions: genotype: MTA1-KO; 16 nM; 72 h
readout: viability inhibition (%)

O=C(O)CCC(=O)c1ccc(-c2ccccc2)cc1 [Fenbufen] = -12.7
CC(O)=C(C#N)C(=O)Nc1ccc(C(F)(F)F)cc1 [Teriflunomide] = -20.1
CC(=NNC(=S)N1CCC1)c1ccccn1 = 113
Nc1nc2[nH]cc(CCc3ccc(C(=O)N[C@@H](CCC(=O)O)C(=O)O)cc3)c2c(=O)[nH]1 [Pemetrexed Disodium Hydrate] = -0.998
CN(Cc1cnc2nc(N)nc(N)c2n1)c1ccc(C(=O)N[C@@H](CCC(=O)O)C(=O)O)cc1 [Methotrexate] = 7.18
O=C1[C@H](CC[C@H](O)c2ccc(F)cc2)[C@@H](c2ccc(O)cc2)N1c1ccc(F)cc1 [Ezetimibe] = -4.11
CC(=O)Nc1ccc(NC(=S)NC(=O)c2ccc(C(C)(C)C)cc2)cc1 [Tenovin-1] = -26.3
Nc1nc2[nH]cc(CCc3ccc(C(=O)N[C@@H](CCC(=O)O)C(=O)O)cc3)c2c(=O)[nH]1 [Pemetrexed disodium] = -3.16
CC(C)[C@]12O[C@H]1[C@@H]1O[C@]13[C@]1(O[C@H]1C[C@H]1C4=C(CC[C@@]13C)C(=O)OC4)[C@@H]2O [Triptolide] = 58.4
CO[C@H]1C[C@@H]2CC[C@@H](C)[C@@](O)(O2)C(=O)C(=O)N2CCCC[C@H]2C(=O)O[C@H]([C@H](C)C[C@@H]2CC[C@H](n3cnnn3)[C@H](OC)C2)CC(=O)[C@H](C)/C=C(\C)[C@@H](O)[C@@H](OC)C(=O)[C@H](C)C[C@H](C)/C=C/C=C/C=C/1C [Zotarolimus] = 5.1
C[C@]12CC[C@H]3[C@@H](CC[C@@]45O[C@@H]4C(O)=C(C#N)C[C@]35C)[C@@H]1CC[C@@H]2O [Trilostane] = -17
CCC(=O)Nc1cccc(Oc2nc(Nc3ccc(N4CCN(C)CC4)cc3OC)ncc2Cl)c1 [WZ4003] = -5.75
Cc1ccc2nc(CN(CCN(Cc3nc4ccc(C)cc4[nH]3)Cc3nc4ccc(C)cc4[nH]3)Cc3nc4ccc(C)cc4[nH]3)[nH]c2c1 = 0.589
Cc1cc(C2CCCCC2)n(O)c(=O)c1 [Ciclopirox] = -13.6
